- test.system: GST-Bcl-B (Homo sapiens)
- assay: Bcl-B/FITC-TR3-r8 fluorescence polarization competition (displacement) assay, HTS and dose-response
- condition.context: read-out: Result Value (Result Type % Inhibition), BCL-b/TR3, Table 8, NCI Structural library; Binding Assay, FP; Concentration 0.02 uM
Known inhibition at 0.02 µM of a selection of compounds
Dear colleague, please return just the value in %, with no unit written.

Sample answers from the record:
O=C1C(Cl)=C(Sc2nnc3c4ccccc4c4ccccc4c3n2)C(=O)c2ccccc21 ... 56.3
CN(C)C1C(O)=C(C(=O)NCN2CCCC2)C(=O)C2(O)C(O)=C3C(=O)c4c(O)cccc4C(C)(O)C3CC12 (centres unmarked) ... 122

In: What measured inhibition at 0.02 µM goes with "C[n+]1c(/C=C/c2ccc(O)c3ncccc23)[se]c2ccccc21" ?
Out: 61.4

In: And then "COc1cc(-c2[o+]c3cc(O)cc(O)c3cc2O)cc(O)c1O.O=C(O)c1ccccc1" , what is it?
Out: 108

In: Same again, this time with CN(C)CS/C(N)=N\C(O)C(Cl)(Cl)Cl (centres unmarked)
Out: 59.9

In: Another compound to look at: "CC(=O)O.Cc1c2cc[n+](CCN3CCCCC3)cc2c(C)c2c1[nH]c1ccc(O)cc12"
Out: 128

In: Next: "CN1CCN(c2ccc3nc(-c4ccc5[nH]c(-c6ccc(O)cc6)nc5c4)[nH]c3c2)CC1"
Out: 71.6

In: What do you get for "O=[N+]([O-])c1cc(Cc2cc([N+](=O)[O-])c3cccnc3c2O)c(O)c2ncccc12" ?
Out: 115

====

- test.system: GST-Bfl-1 (Homo sapiens)
- Construct: lacking their C-terminal transmembrane domains (about the last 20 amino acids) (“ΔTM”); made in house; host or cells: XL-1 Blue E. coli, pGEX 4T-1
- assay: Bfl-1/FITC-Bid BH3 competitive fluorescence polarization assay
- Assay type: binding
- condition.context: primary HTS hits, MLSCN library (PubChem SIDs), Table 5B
recorded.endpoint: % Activity (%)
Please reply with the bare figure in % and do not write the unit itself.

Cc1c(CN(C)C)c2c(n1Cc1ccccc1)C(=O)c1ccc(Br)cc1-2 [Compound 14742663] ... 78.5
N=c1c(C(=O)NCC2CCCO2)cc2c(=O)n3ccccc3nc2n1Cc1cccnc1 (stereo not drawn) [Compound 844196] ... 63.4

# next compound below
In: Checklist item: % Activity tested on GST-Bfl-1 (Homo sapiens), entry O=C(Cc1cnn(-c2ccccc2)c1)c1ccc(O)c(O)c1O [Compound 14732615] , value?
Out: 57.8

====

- test.system: GST-Bfl-1 (Homo sapiens, UniProt Q16548)
- Construct: lacking their C-terminal transmembrane domains (about the last 20 amino acids) (“ΔTM”); made in house; host or cells: XL-1 Blue E. coli, pGEX 4T-1
- Sequence (Q16548 1-155 limits assumed): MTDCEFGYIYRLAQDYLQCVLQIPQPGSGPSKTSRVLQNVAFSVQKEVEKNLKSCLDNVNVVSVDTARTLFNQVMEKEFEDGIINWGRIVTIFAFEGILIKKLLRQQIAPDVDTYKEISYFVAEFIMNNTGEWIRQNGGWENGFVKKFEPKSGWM
- assay: Bfl-1/FITC-Bid BH3 competitive fluorescence polarization assay
- Assay type: binding
- condition.context: primary HTS hits, MLSCN library (PubChem SIDs), Table 5B
Reported values of % Activity for individual entries
The reply should contain only the number, in %.

Use these answered entries as a reference point.
Cc1cc2cc(CN(Cc3ccco3)S(=O)(=O)c3c(C)ccc4nsnc34)c(O)nc2cc1C ... 56
C=CCn1c(SCC(=O)c2ccc(O)c(O)c2)nnc1-c1ccccc1OC ... 54.2
CCSc1nnc(NC(=O)c2cnccn2)s1 ... 58.3

In: Form entry - test system: GST-Bfl-1 (Homo sapiens, UniProt Q16548); read-out: % Activity; compound: "Cc1cc(C)c(I)c(S(=O)(=O)N2CCC(C(=O)OCC(=O)N3c4ccccc4NC(=O)C3(C)C)CC2)c1C"
Out: 72.9

====

- test.system: GST-Bfl-1 (Homo sapiens)
- Construct: lacking their C-terminal transmembrane domains (about the last 20 amino acids) (“ΔTM”); made in house; host or cells: XL-1 Blue E. coli, pGEX 4T-1
- assay: Bfl-1/FITC-Bid BH3 competitive fluorescence polarization assay
- Assay type: binding
- condition.context: primary HTS hits, MLSCN library (PubChem SIDs), Table 5B
recorded.endpoint: FRatio
Write no unit; give the number alone.

O=C(Nc1ccc2nc(-c3ccco3)c(-c3ccco3)nc2c1)N1CCCCCC1 ... 0.96

In: Reported FRatio for "COc1ccc2c(c1)c(=O)oc1cc(OCC(=O)N3CCC(C)CC3)ccc12" : what is it?
Out: 0.49

In: How about this compound: Cc1ccc2nc(O)c(C3C(C#N)=C(N)Oc4c3ccc3cccnc43)cc2c1 (centres unmarked)
Out: 0.84

In: Next: "COc1cc2c(C#N)c(N3CCN(C)CC3)nc(N)c2c(N)n1"
Out: 0.92

In: # repeat for CC1CC(C)CN(C(=O)c2ccc3c(c2NCCO)C(=O)c2ccccc2C3=O)C1 (centres unmarked)
Out: 0.97

In: Moving on to the next compound: "COc1cc(CNCCc2c[nH]c3ccccc23)ccc1OCc1ccc(F)cc1"
Out: 0.84

In: // query: COc1cccc(C(=O)NC2CC3CCCC(C2)N3CC(=O)Nc2ccccc2)c1 (centres unmarked)
Out: 0.72

In: Okay, and "c1coc(C2Nc3cccc4cccc(c34)N2)c1" ?
Out: 1.08

====

- test.system: GST-Bcl-B (Homo sapiens, UniProt Q9HD36)
- Sequence (Q9HD36 1-182 limits assumed): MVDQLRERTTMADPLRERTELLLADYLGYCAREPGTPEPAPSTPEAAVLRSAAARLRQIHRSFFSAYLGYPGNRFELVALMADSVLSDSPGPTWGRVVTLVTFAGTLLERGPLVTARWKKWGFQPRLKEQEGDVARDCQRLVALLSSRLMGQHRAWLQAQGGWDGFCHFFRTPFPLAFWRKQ
- assay: Bcl-B/FITC-TR3-r8 fluorescence polarization competition (displacement) assay, HTS and dose-response
- condition.context: Bcl-B IC50 (uM)
recorded.endpoint: IC50 (µM)
Enter your answer as a number in µM; do not include the unit.

Record excerpt, results attached:
O=S(=O)(O)c1cccc2cccc(Nc3ccccc3)c12 [Compound 5255876] ... 2.95
C=CCN1C(=O)NC(=O)/C(=C/c2cccn2-c2cccc([N+](=O)[O-])c2)C1=O [Compound 5987504] ... 5.36

With those in mind, consider the next compound.
In: Please give the measured IC50 for this compound: Nc1ccc(Oc2ccc(N)c(N)c2)cc1N [Compound 5152592]
Out: 5.37

====

- test.system: GST-Bfl-1 (Homo sapiens)
- Construct: lacking their C-terminal transmembrane domains (about the last 20 amino acids) (“ΔTM”); made in house; host or cells: XL-1 Blue E. coli, pGEX 4T-1
- assay: Bfl-1/FITC-Bid BH3 competitive fluorescence polarization assay
- Type: binding
- condition.context: primary HTS hits, MLSCN library (PubChem SIDs), Table 5B
Field 'label' (enum: met / not met). Set to met when FRatio is strictly under 0.7; else not met.

These recorded examples may help you get a feel for the data.
Cc1csc2nc(CNS(=O)(=O)N(C)C)cn12 ... not met
COc1ccc(-c2nc3n(n2)C(c2cccnc2)C(C(N)=O)=C(C)N3)cc1 (stereo not drawn) ... not met
COc1ccc(NC(=O)C2CCN(c3nc(C)nc4c3CCC4)CC2)cc1 ... not met
Cc1ccc2cccc(S(=O)(=O)Nc3ccc4c(c3)OCO4)c2n1 ... met
CCn1c(CSc2nc3ccccc3s2)nnc1SCC(=O)c1ccc(O)c(O)c1 ... not met

In: Threshold test, FRatio < 0.7: "CSc1nnc(-c2ccco2)c(-c2ccco2)n1"
Out: met

In: Now try "c1nnnn1C12CC3CC(CC(C3)C1)C2" .
Out: not met

====

Reported values of FRatio for individual entries
- test.system: GST-Bfl-1 (Homo sapiens, UniProt Q16548)
- Construct: lacking their C-terminal transmembrane domains (about the last 20 amino acids) (“ΔTM”); made in house; host or cells: XL-1 Blue E. coli, pGEX 4T-1
- assay: Bfl-1/FITC-Bid BH3 competitive fluorescence polarization assay
- Type: binding
- condition.context: primary HTS hits, MLSCN library (PubChem SIDs), Table 5B
Form rule: numeric answer, no unit written next to it.

A selection of reference data follows.
O=C(COC(=O)c1ccc(S(=O)(=O)NCc2ccco2)cc1)NCC1CCCCC1 ... 1.01
CCCCCc1nnc(NC(=O)Cc2cccs2)s1 ... 0.51
COc1ccc(NC(=O)c2noc3c2CCC3)cc1 ... 0.93
COc1ccccc1-c1nnc2sc(-c3cnccn3)nn12 ... 0.59
O=C(CCCCCn1c(=S)[nH]c2ccccc2c1=O)NCc1ccc2c(c1)OCO2 ... 1.37

In: Endpoint output: FRatio of "COC(=O)c1ccccc1NC(=O)c1noc2c1CCC2" . Value?
Out: 0.46

In: Now give it for Cc1c(Cl)cnc(NC(=O)COC(=O)C(NC(=O)c2ccco2)C(C)C)c1Cl (stereo not drawn) too.
Out: 0.66

In: Try this compound too: Cc1cc(Cl)ccc1OCC(=O)OC(C)C(=O)N(C)C (stereo not drawn)
Out: 0.78

In: Would you kindly repeat that for "CCN1CCN(c2ccc(NC(=O)c3cccc4ncccc34)cc2)CC1" ?
Out: 0.21

Cited source for all entries: patent US20090118135A1
